tested on: Wnt5a (protein binding on small-molecule microarray); test: small molecules binding Wnt5a protein – biophysical, small-molecule microarray, 635/667 nm fluorescence, primary screen (AID 1142); conditions: 635 nm fluorescence, higher = more signal;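 note: fluorescence read at 667 nm with signal to noise per printed feature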
Output schema: class label derived from composite z-score. Mapping: group A = under 0.1, group B = from 0.1 up to 0.5, group C = 0.5 and over

Below are worked cases with known answers.
molecule	class-label
COCCOC(=O)N1C(=O)[C@@]2(c3ccccc31)[C@H](c1ccc(O)cc1)N1[C@H](c3ccccc3)[C@H](c3ccccc3)OC(=O)[C@H]1[C@@H]2C(=O)N1CCCCCCC1	group C
COCCn1c(C(=O)N(C)C)cc2c1C[C@H]1CN(C(=O)c3ccccc3)[C@@](Cc3ccc(OC)cc3)(C(=O)OC)[C@@H]21	group B
CC(C)C[C@@H]1NC(=O)[C@@]23C(=O)N[C@@H](Cc4ccccc4)C2[C@H](C)[C@@]2(C)O[C@H]2C3/C=C/C/C=C\CNC(=O)CNC1=O (some centres not stated)	group A
COc1ccc([Si](C)(C)[C@@H]2[C@@H](CC(=O)N3CCC[C@H]3CO)O[C@]3(C(=O)N(Cc4cccc(N5CCCCC5=O)c4)c4ccccc43)[C@H]2C)cc1	group A
C=CCNC(=O)[C@H]1[C@@H]2C(=O)O[C@@H](c3ccccc3)[C@@H](c3ccccc3)N2[C@@H](c2ccc(OCCO)cc2)[C@]12C(=O)Nc1ccc(C#CC3(O)CCCCCC3)cc12	group C

**Query** Which class holds [N-]=[N+]=NCc1ccccc1[C@@H]1OC(c2ccc(OCCCO)cc2)=N[C@]1(Cc1ccccc1N=[N+]=[N-])C(=O)NCC(O)CO (some centres not stated) ?
**Result** group C

**Query** Which class holds O=C1NC(=O)C2C1C=CC(C(O)c1ccc(B(O)O)cc1)N2Nc1ccc(Cl)cc1Cl (configuration not stated) ?
**Result** group A

**Query** Which class holds CC(C)(C)N1CC=CC23O[C@@H]4C=CCOC(=O)[C@@H]4[C@H]2C(=O)N(CCO)[C@@H]3C1=O (some centres not stated) ?
**Result** group A

**Query** Which class holds `CCCC[C@H]1OB(O)C[C@H]2C1=C(COc1ccccc1)C[C@H]1C(=O)C=CC(=O)[C@H]12` ?
**Result** group B

**Query** Which class holds `COc1ccc(C(=O)Nc2cccc(CN3C(=O)[C@]4(O[C@H](CC(=O)N5Cc6ccccc6C[C@H]5CO)[C@@H]([Si](C)(C)c5ccc(OC)cc5)[C@@H]4C)c4ccccc43)c2)cc1` ?
**Result** group C

**Query** Which class holds `O=C1O[C@@H](c2ccccc2)[C@@H](c2ccccc2)N2[C@@H](c3ccc(OCCO)cc3)[C@]3(C(=O)Nc4ccc(C#CCCO)cc43)[C@@H](C(=O)O)[C@H]12` ?
**Result** group C

**Query** Which class holds `C=C(CCCC)C(=O)CC[C@H](OC(=O)c1ccccc1-c1ccccc1C(=O)O)c1ccc(OCCO)cc1` ?
**Result** group B

**Query** Which class holds `COC(=O)[C@@]1(Cc2ccc(OC)cc2)[C@H]2c3cc(C(=O)N(C)C)[nH]c3C[C@H]2CN1C(=O)c1ccccc1` ?
**Result** group B

**Query** Which class holds `CCOC(=O)C[C@H]1[C@H](OC(=O)Cc2ccc3c(c2)OCO3)[C@@H](NC(=O)Cc2ccc(OC)cc2)c2cc(OCCCO)ccc2N1C(=O)Cc1ccc(OC)cc1` ?
**Result** group A

**Query** Which class holds `C=CC[C@@]1(C(=O)OC)N=C(c2ccc(OCCCO)cc2)O[C@@H]1c1ccccc1N=[N+]=[N-]` ?
**Result** group C
